assay-procedure: Transport of PF across MDCK-MDR1 cell monolayers (BBB in vitro model), LC-MS/MS
Type: in vitro ADME, canine
applied-conditions: dog, MDCK-MDR1, pH 7.4, PF 100-800 μg/mL, MDCK-MDR1 cells; read-out: Papp (A→B), range over tested concentrations

- molecule: "C[C@@]12C[C@@]3(O)O[C@@H](O1)[C@]1(COC(=O)c4ccccc4)[C@H]3C[C@@]12O[C@@H]1O[C@H](CO)[C@@H](O)[C@H](O)[C@H]1O [PF, paeoniflorin]"
  Papp A→B at 150 min: "0.587 to 0.705 ×10⁻⁶ cm/s"

###

assay-procedure: Transport of PF across MDCK-MDR1 cell monolayers (BBB in vitro model), LC-MS/MS
Type: in vitro ADME, canine
applied-conditions: dog, pH 7.4; PF 100 μg/mL, MDCK-MDR1 monolayers, mean ± SD (n = 3)

- compound: "C[C@@]12C[C@@]3(O)O[C@@H](O1)[C@]1(COC(=O)c4ccccc4)[C@H]3C[C@@]12O[C@@H]1O[C@H](CO)[C@@H](O)[C@H](O)[C@H]1O [PF, paeoniflorin]"
  readout-unit: "nm/s"
  Papp B→A at 150 min, 100 μg/mL: 15.5

###

assay-procedure: Transport of PF across MDCK-MDR1 cell monolayers (BBB in vitro model), LC-MS/MS
Format: in vitro ADME, canine
applied-conditions: dog, MDCK-MDR1, pH 7.4, PF 100 μg/mL, MDCK-MDR1 monolayers, mean ± SD (n = 3)
observed-property: Papp A→B at 150 min, 100 μg/mL (×10⁻⁶ cm/s)

- smiles-text: "C[C@@]12C[C@@]3(O)O[C@@H](O1)[C@]1(COC(=O)c4ccccc4)[C@H]3C[C@@]12O[C@@H]1O[C@H](CO)[C@@H](O)[C@H](O)[C@H]1O"
  recorded-value: 0.697

###

Test system: P-gp (MDR1)
assay-procedure: Transport of PF across MDCK-MDR1 cell monolayers (BBB in vitro model), LC-MS/MS
Type: in vitro ADME, canine
applied-conditions: dog, MDCK-MDR1, pH 7.4
Procedure: Cell monolayers were pre-incubated in Hank's buffered salt solution (HBSS, pH 7.4) for 30 min at 37 °C. Transepithelial electrical resistance (TEER) values were measured across the monolayers using a Millipore Millicell ERS system equipped with chopstick electrodes (Millipore Corporation, Billerica, MA, USA). […] Basolateral (B)→apical (A) transporter was evaluated adding 1.5 mL of drug solution in B side and 0.5 mL of HBSS in A side. […] Each measurement was evaluated in triplicate. […]

- molecule: "C[C@@]12C[C@@]3(O)O[C@@H](O1)[C@]1(COC(=O)c4ccccc4)[C@H]3C[C@@]12O[C@@H]1O[C@H](CO)[C@@H](O)[C@H](O)[C@H]1O [PF, paeoniflorin]"
  efflux ratio at 150 min, 800 μg/mL: 2.01

###

assay-procedure: Transport of PF across MDCK-MDR1 cell monolayers (BBB in vitro model), LC-MS/MS
Type: in vitro ADME, canine
applied-conditions: dog, MDCK-MDR1, pH 7.4, PF 600 μg/mL, MDCK-MDR1 monolayers, mean ± SD (n = 3)
observed-property: Papp A→B at 150 min, 600 μg/mL (×10⁻⁶ cm/s)

- compound: "C[C@@]12C[C@@]3(O)O[C@@H](O1)[C@]1(COC(=O)c4ccccc4)[C@H]3C[C@@]12O[C@@H]1O[C@H](CO)[C@@H](O)[C@H](O)[C@H]1O [PF, paeoniflorin]"
  readout-unit: "×10⁻⁶ cm/s"
  recorded-value: 0.666
